# target: human c-fms, full length, on cells (human, UniProt P07333 20-972)
# Sequence (P07333 20-972): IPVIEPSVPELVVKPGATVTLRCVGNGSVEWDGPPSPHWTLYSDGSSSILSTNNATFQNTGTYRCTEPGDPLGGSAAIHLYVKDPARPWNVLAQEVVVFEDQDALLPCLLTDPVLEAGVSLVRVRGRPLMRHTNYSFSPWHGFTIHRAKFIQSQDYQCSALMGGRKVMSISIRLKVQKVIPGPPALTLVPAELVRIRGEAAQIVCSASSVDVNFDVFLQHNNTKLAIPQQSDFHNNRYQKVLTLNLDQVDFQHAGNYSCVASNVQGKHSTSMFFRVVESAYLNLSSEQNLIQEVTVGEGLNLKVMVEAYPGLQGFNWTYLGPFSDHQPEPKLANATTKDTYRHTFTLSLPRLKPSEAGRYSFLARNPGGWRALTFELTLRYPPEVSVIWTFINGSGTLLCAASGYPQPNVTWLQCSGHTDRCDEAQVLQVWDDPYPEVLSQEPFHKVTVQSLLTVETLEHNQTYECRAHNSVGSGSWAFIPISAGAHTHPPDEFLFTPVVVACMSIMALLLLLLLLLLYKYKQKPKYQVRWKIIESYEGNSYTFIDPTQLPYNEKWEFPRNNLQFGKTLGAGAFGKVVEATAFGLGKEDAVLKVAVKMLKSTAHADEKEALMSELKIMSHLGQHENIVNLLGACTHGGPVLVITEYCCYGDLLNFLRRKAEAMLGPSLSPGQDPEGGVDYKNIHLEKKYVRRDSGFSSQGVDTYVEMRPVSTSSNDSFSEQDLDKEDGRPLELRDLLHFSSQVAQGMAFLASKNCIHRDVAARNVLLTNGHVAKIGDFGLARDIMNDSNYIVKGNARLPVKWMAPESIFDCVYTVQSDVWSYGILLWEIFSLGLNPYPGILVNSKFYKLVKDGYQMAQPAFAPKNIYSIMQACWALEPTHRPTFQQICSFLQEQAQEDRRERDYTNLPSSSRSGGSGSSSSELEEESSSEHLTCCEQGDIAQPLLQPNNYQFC
# experimentalDetails: cell-based or functional assay
We begin with a simple list: items and their reported AML-5 bioassay IC50.
Dear colleague, please return just the value in ng/mL, with no unit written.

anti-c-fms hybridoma antibody 2.360 (antibody, IgG2, V domains shown, Hybridoma IgG2 (cohort 2)) VH: QVQLVQSGAEVKKPGASVKVSCKVSGYTLTELSMHWVRQAPGKGLEWMGGFDPEDGETIYAQKFQGRVTMTEDTSTDTVYMELSSLRSEDTAVYYCATGVMITFGGVIVGHSYYGMDVWGQGTTVTVSS VL: DIQMTQSPSSLSASVGDRVTITCRASQGINNYLAWYQQKPGKVPQLLIYVASTLQSGVPSRFSGSGSGTDFTLTISSLQPEDVATYYCQKYNSGPFTFGPGTKVDIK: 4
anti-c-fms hybridoma antibody 2.508 (antibody, IgG2, V domains shown, Hybridoma IgG2 (cohort 2); also called 2.508.1; 2.508.2) VH: QVQLVQSGAEVKKPGASVKVSCKVSGYTLTELSMHWVRQAPGKGLEWMGGFDPEDGETIYAQKFQGRVTMTEDTSTDTAYMELSSLRSEDTAVYYCATAGLEIRWFDPWGQGTLVTVSS VL: DIVMTQSPLSLPVTPGEPASISCRSSQSLLHSNGYNYLDWYLQKPGQSPQFLIYLGSIRASGVPDRFSGSGSGTDFALTISRVEAEDVGVYYCMQALQTPRTFGQGTKVEIK: 5

Exam item: Can you share its AML-5 bioassay IC50? I mean this binder: anti-c-fms hybridoma antibody 2.475 (antibody, IgG2, V domains shown, Hybridoma IgG2 (cohort 2); also called 2.475.2) VH: QVQLVESGGGVVQPGRSLRLSCAASGFTFISYGMHWVRQAPGKGLEWVAVIWYDGSNKYYADSVKGRFTISRDNSKNTLYLQMNSLRAEDTAVYYCADSSGDYYGMDVWGQGTTVTVSS VL: DIQMIQSPSSLSASVGDRVTITCQASHDISNYLNWYQQKPGKAPKFLISDASNLETGVPSRFSGSGSGTDFTFTISSLQPEDIATYYCQQYDNLPLTFGGGTKVEIK
Marked response: 6
